binders and their reported Mean % WT Binding
Biological target: human CD33 C274A (human, UniProt P20138 18-364)
Sequence (P20138 18-364 C274A limits assumed): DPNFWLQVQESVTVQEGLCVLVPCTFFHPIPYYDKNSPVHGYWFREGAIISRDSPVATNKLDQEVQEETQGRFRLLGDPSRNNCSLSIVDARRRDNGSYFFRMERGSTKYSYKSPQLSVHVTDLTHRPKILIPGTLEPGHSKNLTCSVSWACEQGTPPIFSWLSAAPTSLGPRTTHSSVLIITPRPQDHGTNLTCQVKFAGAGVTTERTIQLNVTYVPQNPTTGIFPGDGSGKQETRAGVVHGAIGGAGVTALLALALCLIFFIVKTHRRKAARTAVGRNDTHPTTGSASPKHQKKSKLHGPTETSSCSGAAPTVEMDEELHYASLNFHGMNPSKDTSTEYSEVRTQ
Experiment: alanine scan, flow cytometry, HEK293-T;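 note: antibody binding to each alanine-substituted CD33 mutant expressed transiently in HEK293-T, read as fluorescence minus background, mean of duplicates, relative to wild-type CD33 set as 100%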
Field: numeric (% WT binding). Do not append units.

Refmab #3 (antibody, V domains shown, The alanine scan used IgG or Fab) VH: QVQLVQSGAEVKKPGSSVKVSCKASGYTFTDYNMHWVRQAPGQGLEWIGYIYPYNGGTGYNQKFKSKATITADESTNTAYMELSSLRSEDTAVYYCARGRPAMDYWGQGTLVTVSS VL: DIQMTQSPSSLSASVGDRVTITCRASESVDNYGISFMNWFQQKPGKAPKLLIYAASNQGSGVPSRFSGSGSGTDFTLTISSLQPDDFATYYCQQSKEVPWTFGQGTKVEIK = 111
Refmab #4 (antibody, V domains shown, The alanine scan used IgG or Fab) VH: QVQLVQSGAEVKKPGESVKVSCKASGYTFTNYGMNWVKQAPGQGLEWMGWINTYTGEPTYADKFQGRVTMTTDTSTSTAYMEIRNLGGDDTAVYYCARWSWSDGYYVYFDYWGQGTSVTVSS VL: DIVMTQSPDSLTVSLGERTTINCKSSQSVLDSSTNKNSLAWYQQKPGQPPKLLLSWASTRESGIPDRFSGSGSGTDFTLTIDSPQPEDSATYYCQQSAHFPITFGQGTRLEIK = 103
Refmab #2 (antibody, V domains shown, The alanine scan used IgG or Fab) VH: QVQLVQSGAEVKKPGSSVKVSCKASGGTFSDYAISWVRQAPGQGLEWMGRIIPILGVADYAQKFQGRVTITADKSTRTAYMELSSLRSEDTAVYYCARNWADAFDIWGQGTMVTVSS VL: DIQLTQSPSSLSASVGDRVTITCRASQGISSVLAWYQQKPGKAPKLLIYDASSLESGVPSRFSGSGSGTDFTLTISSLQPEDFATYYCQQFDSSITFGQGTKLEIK = 117

Proceeding to the next binder to report its Mean % WT Binding.
Task item: Indicate its recorded Mean % WT Binding; the binder in question is Refmab #1 (antibody, V domains shown, The alanine scan used IgG or Fab; also called hP67.6) VH: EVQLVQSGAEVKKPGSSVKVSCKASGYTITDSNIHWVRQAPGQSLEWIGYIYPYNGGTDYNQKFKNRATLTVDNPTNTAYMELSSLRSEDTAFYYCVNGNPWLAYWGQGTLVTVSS VL: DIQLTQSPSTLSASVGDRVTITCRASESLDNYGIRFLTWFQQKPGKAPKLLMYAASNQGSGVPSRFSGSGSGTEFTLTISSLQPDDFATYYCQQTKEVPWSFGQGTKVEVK
Reply: 88.4
